assay: amyloid nucleation score (Sup35N fusion, yeast selection) (log enrichment); library NNK1; higher = more nucleation; inactive = no reads after selection;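 further: zero at mode of non-aggregating sequences after 7 days selection at 30°C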
Returns Fulfilled if the recorded amyloid nucleation score is greater than or equal to 0.5, and Not fulfilled otherwise.

Recorded results for 4 substances are shown here.
1. VTKFLWYIPGPKIGRFYLSN	Not fulfilled
2. FIGAFRTTHSAGLLTDRMVL	Fulfilled
3. RINVYII	Fulfilled
4. STVAGRWNYCSVTLLCVGFF	Fulfilled

Q: // inclusive: amyloid nucleation score at least 0.5? input: LSVAHDGSLWVLFRKKPFGL
Result: Not fulfilled

Q: // inclusive: amyloid nucleation score at least 0.5? input: KRRYYCFGAMVY
Result: Not fulfilled

Q: // inclusive: amyloid nucleation score at least 0.5? input: PHSMYCGETWLSLDCQMQFM
Result: Not fulfilled

Q: // inclusive: amyloid nucleation score at least 0.5? input: YFGKYLIWWFMSKLAV
Result: Not fulfilled

Q: // inclusive: amyloid nucleation score at least 0.5? input: LASSIFASFRTFVQPSVSGY
Result: Not fulfilled

Q: // inclusive: amyloid nucleation score at least 0.5? input: TVMTRRSLWRTVGLNWVMLV
Result: Fulfilled

Q: // inclusive: amyloid nucleation score at least 0.5? input: VLRQMS
Result: Fulfilled

Q: // inclusive: amyloid nucleation score at least 0.5? input: EFERVRYLYCGRPVPSHILL
Result: Not fulfilled

---

assay: amyloid nucleation score (Sup35N fusion, yeast selection) (log enrichment); library NNK2; higher = more nucleation; inactive = no reads after selection
# binning rule on amyloid nucleation score: lower = under 0.03, middle = from 0.03 up to 1, upper = 1 and over

Recorded results for 10 substances are shown here.
1. NGVRLNLVNFSFGLDVMPFR	upper
2. SGPVERFLILLIRCMNRLYV	lower
3. IIINFRVAINDWGFLSVSID	upper
4. QSRSMNRHNWHTFMLWAWER	lower
5. VMRRVVKKQSWYLIKGLSM	middle
6. SKYLCRICDPMHLNLFCRWQ	upper
7. LLRGRFGDSVSAVGFSGFCN	lower
8. LNGLDPSNAHMIYYLYTSYL	lower
9. FISMNLEVSN	lower
10. PTRVKIFFQRMCGVVAVGWS	upper

Here is the next item to consider.
Q: Returns: class label. Input: VPSQRNWFC
Result: lower

---

assay: amyloid nucleation score (Sup35N fusion, yeast selection) (log enrichment); library NNK1; higher = more nucleation; inactive = no reads after selection
Kindly supply the reported amyloid nucleation score values for the records listed here.
Answers are plain numbers.

The cases that follow already have their amyloid nucleation score on record.
1) DSWIQHGGCEFVLIVRRHFI	0.714
2) TCSSLRSLLWSCVVRALLWT	-0.528
3) VMLGGSPHMPIAN	0.047

For each of the items listed, what is its amyloid nucleation score?
1. NLTGGCLGVRWDMVECAWYY
2. KACWTFNFCKSMVVKEHDPI
3. HVGHCLLLKFQSIWDFWCVC
4. IKEFLKACNHHEPMPGNLMR
5. LIFNQLWWRKSMCLQVRPGQ

Result:
1. 3.77
2. 2.56
3. 0.237
4. -0.005
5. -1.25

For each of the items listed, what is its amyloid nucleation score?
1. NFINVVVWQEGYLRVIHTSV
2. LTEDPGIRSSQR
3. FINNNVEDYFISL

Result:
0.537
0.055
0.712

For each of the items listed, what is its amyloid nucleation score?
1. SNNHQFFCDTFDIGWWEVGR
2. YRVNWFYMQRCAIP
3. FPENGLRSFSCPLVH
4. GRFFRRLRECNLPHSNIHAY
5. NNCSWIIGHRVVPTSRGE
6. IFYLTSVFVFSLLKFMTCER

Result:
-1.63
-0.269
0.382
0.343
-0.329
-1.17
